system: HCT-15 colon; assay: NCI tumour cell line growth inhibition, 48 h
Property measured: TGI

Some solved cases for reference:
## Task Tell me its TGI given CCCCCCCCCCCCOCC1(COCCCCCCCCCCCC)COC(c2ccc(N)cc2)OC1 as the entry.
## Result > 100 µM

## Task Tell me its TGI given CC(=O)N1C(Nc2nccs2)CCN1c1ccccc1 (stereo not given) as the entry.
## Result > 10 µM

## Task Tell me its TGI given CCOc1nc2c(N3CCCC3)nc(N3CCNCC3)nc2nc1NCc1ccccc1 as the entry.
## Result 3.45 µM

## Task Tell me its TGI given COc1cccc(C23CCN(C)C(CC(O)C2)C3)c1OC (stereo not given) as the entry.
## Result > 100 µM

---
## Task Tell me its TGI given CC1(C)OC[C@@H]([C@@]2(COC(c3ccccc3)(c3ccccc3)c3ccccc3)CC=CC(=O)O2)O1 as the entry.
## Result > 100 µM

====

system: U251 CNS; assay: NCI tumour cell line growth inhibition, 48 h
Listed below: TGI values for each entry.
Use µM as the unit, but write only the number.

Some solved cases for reference:
## Task Tell me its TGI given CCOc1nc2c(N3CCCC3)nc(N3CCNCC3)nc2nc1NCc1ccccc1 as the entry.
## Result 2.39

## Task Tell me its TGI given C#C[C@]1(O)CC[C@H]2[C@@H]3CC=C4c5nc(N)sc5CC[C@]4(C)[C@H]3CC[C@@]21C as the entry.
## Result 16.4

## Task Tell me its TGI given Nc1ccccc1C#Cc1ccccc1C#Cc1cccs1 as the entry.
## Result 27.3

## Task Tell me its TGI given O=[N+]1[C@H](c2ccccc2)[C@H](c2ccccc2)N1[O-] as the entry.
## Result 33.5

## Task Tell me its TGI given O=C(Cn1c2ccc(Br)cc2c2nc3ccccc3nc21)Nc1ccccc1 as the entry.
## Result 73.5

## Task Tell me its TGI given Cc1ccc(S(=O)(=O)N/N=C2/CCC3(O)CC2(C)CCC2[C@H]3CC2(C)C)cc1 (some centres not stated) as the entry.
## Result 36

Now turn to the next molecule.
## Task Tell me its TGI given O=C1C(=O)C2(CC1S(=O)(=O)c1ccccc1)c1ccccc1-c1ccccc12 (configuration not stated) as the entry.
## Result 34.3

====

test system: SF-295 CNS; experiment: NCI tumour cell line growth inhibition, 48 h
Property measured: TGI (µM)
Use µM as the unit, but write only the number.

## Task Please look at CCCCCC[C@H]1C(=O)O[C@H](C)[C@H](NC(=O)c2cccc(NC=O)c2OC)C(=O)O[C@@H](C)[C@@H]1OC(=O)CCC (tested in a mixture with another compound) and tell me its recorded TGI on SF-295 CNS.
## Result 20.8

====

tested on: DMS 273 small cell lung; test: NCI tumour cell line growth inhibition, 48 h
Listed below: TGI values for each entry.

## Task Tell me its TGI given CCOC(=O)C1=C(OC(OCC)C(CC)[Se]c2ccccc2)CCC1 (stereo not given) as the entry.
## Result 29.2 µM

---
## Task Tell me its TGI given O=C1CCC(=O)N1Sc1ccccc1 as the entry.
## Result > 100 µM

## Task Tell me its TGI given CN(C)CCN1CCc2c([nH]c3ccccc23)C1c1cccnc1 (stereo not given) as the entry.
## Result > 100 µM

## Task Tell me its TGI given C[C@H]1CC[P+](C)(c2ccccc2)C1 (stereo not given in full) as the entry.
## Result > 100 µM

## Task Tell me its TGI given C=C1C2=C(CCCC2)C(=O)OC12CCCCC2 as the entry.
## Result > 100 µM

## Task Tell me its TGI given CN1CCc2ccccc2C(C(=O)c2ccc3c(c2)OCO3)C1=O (stereo not given) as the entry.
## Result > 100 µM
